Values from PubChem BioAssay (NCI)

Test: NCI Yeast Anticancer Drug Screen. Data for the mec2-1 strain (AID 157)
Conditions: S. cerevisiae mec2-1 strain, at 50.0 µM (retest, dose inferred, filed as 5.0)
Compounds without any hit were thinned out: in the full panel of roughly 79,000, 15% have a hit. Calls of active or inactive are those of the source. Rule as the data show it: active = growth inhibition above about 70%; inactive = the rest.
// allowed return values: Y for active, N for inactive

INSERT INTO measurements (compound, label_class) VALUES
  ('CC1COC(c2cn[nH]c2C(N)=O)C1O (stereo unspecified)', 'N'),
  ('Nc1ccccc1[S][Sn]([c]1ccccc1)([c]1ccccc1)[c]1ccccc1', 'Y');

Data request: Recorded call for CC(CO)(CO)N=Cc1cc(I)cc(I)c1O ?
Data returned: Y

Data request: Could you please tell me the result logged for Clc1ccc(-c2csc(NCC3CCCO3)n2)cc1 (stereo unspecified) in this assay?
Data returned: N

Data request: Record request — test call for CCCCP(CCCC)(CCCC)=C(C(=O)OC)C(C(=O)OC)=C1SC(C(=O)OC)=C(C(=O)OC)S1
Data returned: N

Data request: What call does the record list for Oc1cc(Br)cc2cc(Br)cnc12 ?
Data returned: Y
